The measurements presented in this section are drawn from PubChem BioAssay (NCI).

System: UACC-62 melanoma
Assay: NCI-60 one-dose screen, 48 h
Setup Conditions: 10 µM unless noted
Compounds without any hit were thinned out: in the full panel of roughly 83,000, 20% have a hit. Active and inactive are the calls of the source. How the source made its calls: active means growth percent below 10; inactive means the rest.
Labels: Y (active), N (inactive)

* CCOC(=O)CC(=O)c1c(C)cc(C)cc1C | N
* COc1ccc(-c2csc(NC(=O)CN3CCN(c4cc5c(cc4F)c(=O)c(C(=O)O)cn5C4CC4)CC3)n2)cc1 | N
* CN1CCOCCOCCOc2ccccc2NC(=O)c2nc(cnc2N)-c2ccc(cc2)S1(=O)=O | N
* CC/C=C\C[C@H](O)C/C=C1/C(=O)C=C[C@@H]1C/C=C\CCCC(=O)NC | Y
* Clc1cccc(Nc2nc(Nc3cnc4ccccc4c3)c3[nH]cnc3n2)c1 | N
* CC(=O)C1=C(O)C=C2Oc3c(C(=O)/C=C/c4c(Cl)cccc4Cl)c(O)c(C)c(O)c3[C@]2(C)C1=O | Y
* NC(N)=Nc1ccc(S(=O)(=O)O)cc1 | N
* O=C(CCN1CCOCC1)Nc1ccc(Cn2nnc3c2C(=O)c2nnn(Cc4ccc(NC(=O)CCN5CCOCC5)cc4)c2C3=O)cc1 | Y
* COc1cccc(-n2cc(-c3nc(Nc4cc(C)[nH]n4)c4ccccc4n3)nn2)c1 | N
* Cn1c2ccccc2c2c3c(c4c5ccccc5[nH]c4c21)C(=O)N(N)C3=O | N
* O=c1c2cccc3c(Nc4ccccn4)ccc(c32)c2nc3ccccc3n12 | N
* COc1ccc(-n2cc(-c3ccccc3)c3c(SCC(=O)N/N=C/c4ccc([N+](=O)[O-])cc4)ncnc32)cc1 | N

====

Tested on: HOP-92 NSCLC
Assay: NCI-60 one-dose screen, 48 h
Setup Conditions: 10 µM unless noted
The panel holds about 83,000 compounds, 20% with a hit somewhere; the sample as a whole holds those more often. The source made the active and inactive calls. How the source made its calls: active means growth percent below 10; inactive means the rest.
Labels: 1 = active, 0 = inactive

- COC(/C=C/c1ccc([N+](=O)[O-])cc1)OC: 0
- COc1c(Cl)cc(Cl)cc1Cl: 0
- CC/C(=C(\c1ccccc1)c1ccc(OCCNC)cc1)c1ccccc1: 1
- O=C1/C(=C/c2ccccc2)CN(CCC(=O)N2C/C(=C\c3ccccc3)C(=O)/C(=C/c3ccccc3)C2)C/C1=C\c1ccccc1: 0
- COCCOc1ccc(-c2nc3ccc(-c4nc5ccc(N6CCN(C)CC6)cc5[nH]4)cc3[nH]2)cc1: 0
- CCCCCCCCCCCCCCCC(=O)OCC1OC(n2cnc3c(=S)nc(N)[nH]c32)C(OC(=O)CCCCCCCCCCCCCCC)C1OC(=O)CCCCCCCCCCCCCCC (stereo unspecified): 0
- COc1nc2c(cc1S(=O)(=O)c1ccccc1)CCc1c-2cnn1Cc1ccccc1: 1
- Nc1cccc(NC(=O)C(=O)Nc2cccc(N)c2)c1: 0
- CCC(c1ccc(O)cc1)C(CC)c1ccc(O)c(F)c1 (stereo unspecified): 0
- CC(=O)Oc1cc2cnc3c4cc(OC(C)=O)c(OC(C)=O)cc4ccc3c2cc1OC(C)=O: 0
- Cc1ccccc1CCO: 0
- C/C(=C(/c1ccc(O)cc1)c1ccc(OCCN(C)C)cc1)c1ccccc1: 0
- CNC(=S)N/N=C/CSC/C=N/NC(=S)NC: 0
- O=C(CCCN1CCOCC1)Nc1ccc(Cn2nnc3c2C(=O)c2nnn(Cc4ccc(NC(=O)CCCN5CCOCC5)cc4)c2C3=O)cc1: 1
- O=[N+]([O-])c1cccc(-c2nc3sccn3c2-c2ccnc(NCCCNS(=O)(=O)c3cccc(F)c3)n2)c1: 0
- N#Cc1c(N)nc(N)nc1Nc1ccc(Br)cc1: 0
- COc1ccc(-c2cc(-c3cccnc3)nc3sc4c(=O)n(-c5ccc(C)cc5)nnc4c23)cc1OC: 0
- Cc1sc2nc3[nH]/c(=C\c4ccc(Cl)cc4)c(=O)n3c(=O)c2c1C: 0
- Nc1c(C(=O)Nc2cccc3c2OCCO3)sc2nc3c(cc12)CN(Cc1ccccc1)CC3: 0
- COc1ccc2nc(NC(=O)c3cccnc3Nc3cc(OC)c(OC)c(OC)c3)sc2c1: 1
- CSc1nc2sc3c(c2c(=O)n1-c1ccc(C(C)C)cc1)CCC(=O)C3: 1
- COc1cccc(/C=C\C(=O)c2ccccc2)c1: 0
- Cc1cc2cc3cc(C)c(N(C)C)cc3[n+](C)c2cc1N(C)C: 1
- CCN(CC)Cc1cc(Nc2c3ccc(Cl)cc3nc3c(C)cccc23)ccc1O: 1
- CCN(CC)C12CCCCC1(C)C(C#N)(C#N)C(C#N)=C(N)O2 (stereo unspecified): 0
- NCc1cn2cc(Cl)sc2n1: 0
- O=C(O)c1ccc(=O)[nH]n1: 0
- CC1=C(NCCN2CCCC2)C(=O)c2c(OCc3ccc(F)c(Cl)c3)cccc2C1=O: 0
- Nc1c(C(=O)Nc2ccccc2Cl)sc2nc3c(cc12)CCCCCC3: 0
- O=C1C(=O)N(CCCCn2cc(CO)nn2)c2ccccc21: 0
- Cl/C(=N\Nc1ccccc1)c1ccccc1: 0
